Reported pIC50 by item:
molecular target: HLA-DR molecule encoded by the allele DRB5*0101 (human); experiment: competition ELISA vs biotinylated HA 306-318
pIC50 here: minus log base 10 of the concentration, concentration in moles per litre.

Example entries and their recorded answers appear below.
>  <Binder>
SRLAFHHVARELHPE (modifications not checked) [Nef13.4 peptide (positions 187-201 of the HIV-1 Nef protein, Bru strain), P03406 187-201]

>  <Test value>
6.52

$$$$
>  <Binder>
DLSHFLKEKGGLEGL (modifications not checked) [Nef5 peptide (positions 86-100 of the HIV-1 Nef protein, Bru strain), P03406 86-100]

>  <Test value>
5.10

$$$$
>  <Binder>
LAFHHVARELHPEYF (modifications not checked) [Nef13.5 peptide (positions 189-203 of the HIV-1 Nef protein, Bru strain), P03406 189-203]

>  <Test value>
6.22

$$$$
>  <Binder>
LEWRFDSRLAFHHVA (modifications not checked) [Nef13.2 peptide (positions 181-195 of the HIV-1 Nef protein, Bru strain), P03406 181-195]

>  <Test value>
8.22

$$$$
>  <Binder>
LTFGWCYKLVPVEPDKVEEANKGENTSLLHPV (modifications not checked) [Nef10 peptide (positions 137-168 of the HIV-1 Nef protein, Bru strain), P03406 137-168]

>  <Test value>
6.60

$$$$

Ask: Which pIC50 value belongs to FGWCYKLVPVEPDKV (modifications not checked) [Nef10.2 peptide (positions 139-153 of the HIV-1 Nef protein, Bru strain), P03406 139-153] ?
Reply: 6.05
